Tested on: Shigella sonnei ATCC9290
MEASUREMENT_KIND: MIC (µg/mL)
Respond with the bare value in µg/mL.

Query block: What value of MIC has been reported for the following compound? CO[C@H]1[C@@H](O)[C@H](N)[C@@H](O[C@H]2O[C@H]([C@H](C)N)CC[C@H]2N)[C@H](O)[C@@H]1N(C)CCN
Result block: 6.25

Query block: What value of MIC has been reported for the following compound? NC[C@H]1O[C@H](O[C@H]2[C@H](O)[C@@H](O[C@H]3O[C@H](CO)[C@@H](O)[C@H](N)[C@H]3O)[C@H](N)C[C@@H]2N)[C@H](O)[C@@H](O)[C@@H]1O [KA, kanamycin A, reference compound]
Result block: 3.12

Query block: What value of MIC has been reported for the following compound? CNCC[C@H](O)CN(C)[C@H]1[C@@H](O)[C@H](O[C@H]2O[C@H]([C@H](C)N)CC[C@H]2N)[C@@H](N)[C@H](O)[C@@H]1OC
Result block: 6.25

###

Tested on: Escherichia coli R12 Z-338
ASSAY_EXPLANATION: MIC, agar dilution method, pH 7.2
Type: cell-based
CONDITIONS: R12Z338, pH 7.2, E. coli R12 Z-338, 1**: gentamicin, producing adenylsynthetase, read-out: Minimum inhibition concentration (MIC)
MEASUREMENT_KIND: MIC (µg/mL)
Respond with the bare value in µg/mL.

Query block: API: value(readout= MIC, system= Escherichia coli R12 Z-338, query= CO[C@H]1[C@@H](O)[C@H](N)[C@@H](O[C@H]2O[C@H]([C@H](C)N)CC[C@H]2N)[C@H](O)[C@@H]1N(C)C[C@@H](O)CCN )
Result block: 12.5

Query block: API: value(readout= MIC, system= Escherichia coli R12 Z-338, query= NC[C@H]1O[C@H](O[C@H]2[C@H](O)[C@@H](O[C@H]3O[C@H](CO)[C@@H](O)[C@H](N)[C@H]3O)[C@H](N)C[C@@H]2N)[C@H](O)[C@@H](O)[C@@H]1O [KA, kanamycin A, reference compound] )
Result block: 100

###

ASSAY_EXPLANATION: in vivo
CONDITIONS: mouse, iv
The molecules listed here are annotated with their LD50.
Respond with the bare value in mg/kg.

{"MOLECULE": "CO[C@H]1[C@@H](O)[C@H](N)[C@@H](O[C@H]2O[C@H]([C@H](C)N)CC[C@H]2N)[C@H](O)[C@@H]1N(C)C(=O)CN [Compound 2, 4-N-glycylfortimicin B, reference compound]", "LD50 [mg/kg]": 330}

Could you now look at the following molecule, please?
Query block: What value of LD50 has been reported for the following molecule? CO[C@H]1[C@@H](O)[C@H](N)[C@@H](O[C@H]2O[C@H]([C@H](C)N)CC[C@H]2N)[C@H](O)[C@@H]1N(C)C[C@@H](O)CCN
Result block: 135

###

Test system: Bacillus subtilis KY4273
ASSAY_EXPLANATION: MIC, agar dilution method, pH 8.0
Type: cell-based
CONDITIONS: pH 8.0; Bacillus subtilis KY4273; read-out: Minimum inhibition concentration (MIC), BS
MEASUREMENT_KIND: MIC (µg/mL)
Respond with the bare value in µg/mL.

Some solved entries appear below for comparison.
{"MOL": "CO[C@H]1[C@@H](O)[C@H](N)[C@@H](O[C@H]2O[C@H]([C@H](C)N)CC[C@H]2N)[C@H](O)[C@@H]1N(C)C(=O)CCN", "ASSAYED_TARGET": "Bacillus subtilis KY4273", "MIC [µg/mL]": 0.08}
{"MOL": "CO[C@H]1[C@@H](O)[C@H](N)[C@@H](O[C@H]2O[C@H]([C@H](C)N)CC[C@H]2N)[C@H](O)[C@@H]1N(C)CCCCN", "ASSAYED_TARGET": "Bacillus subtilis KY4273", "MIC [µg/mL]": 0.32}
{"MOL": "CNCCN(C)[C@H]1[C@@H](O)[C@H](O[C@H]2O[C@H]([C@H](C)N)CC[C@H]2N)[C@@H](N)[C@H](O)[C@@H]1OC", "ASSAYED_TARGET": "Bacillus subtilis KY4273", "MIC [µg/mL]": 0.32}
{"MOL": "CO[C@H]1[C@@H](O)[C@H](N)[C@@H](O[C@H]2O[C@H]([C@H](C)N)CC[C@H]2N)[C@H](O)[C@@H]1N(C)C(=O)CO", "ASSAYED_TARGET": "Bacillus subtilis KY4273", "MIC [µg/mL]": 5}

Query block: What value of MIC has been reported for the following compound? CO[C@H]1[C@@H](O)[C@H](N)[C@@H](O[C@H]2O[C@H]([C@H](C)N)CC[C@H]2N)[C@H](O)[C@@H]1N(C)CCCCCN
Result block: 0.63

Origin of values: patent US4220755A
